# Assay method text: plasma pharmacokinetics in patients (HPLC–MS/MS, non-compartmental analysis)
# Assay type: in vivo, human
# Experimental context: human, plasma, oral, Dose-level 4: dacomitinib 15 mg QD + PD-0325901 5 mg BID; Cycle 1 Day 1; n = 3; read-out: tmax dacomitinib, mean
Reported metric: Tmax (h)
Provide the reading as a plain figure in h.

Problem: Request the reported Tmax associated with COc1cc2ncnc(Nc3ccc(F)c(Cl)c3)c2cc1NC(=O)/C=C/CN1CCCCC1
Result: 4.7

----------
# Assay method text: plasma pharmacokinetics in patients (HPLC–MS/MS, non-compartmental analysis)
# Assay type: in vivo, human
# Experimental context: human, plasma, oral, Dose-level 6: dacomitinib 30 mg (4/3) QD + PD-0325901 6 mg BID; last day of concomitant use of both drugs; n = 1; read-out: AUC0-12h PD-0325901, mean (CV%)
Reported metric: AUC(0-t)

Problem: Request the reported AUC(0-t) associated with O=C(NOC[C@H](O)CO)c1ccc(F)c(F)c1Nc1ccc(I)cc1F [PD-0325901]
Result: 1340 ng·h/mL

Entry source: paper PMC7156736
